Each recorded value in this set is attributed to ChEMBL document CHEMBL1201862.

- Test system: NCI-H23
- Assay method text: NCI tumour cell line growth inhibition, 48 h
The source made the active and inactive calls. No stated cut-off is given here; in the data, active = GI50 up to about 1.1 µM and inactive = higher.
Reply using exactly one outcome from Yes = active, No = inactive

Example entries and their recorded answers appear below.
Compound: CC12CC3CC(C)(C1)CC(N=[N+]=[N-])(C3)C2
Assigned category: No
//
Compound: COC(=O)C1=CO[C@@H](OC2OC(CO)C(O)C(O)C2O)[C@H]2[C@@H](C)[C@@H](O)[C@@H](O)[C@@H]12 (stereo partly drawn)
Assigned category: No
//
Compound: CC(=O)N(C(=O)CC(=O)N1N=C(c2ccccc2)C(/N=N/c2ccccc2[N+](=O)[O-])C1=O)c1ccc(Cl)cc1 (stereo not drawn)
Assigned category: No

Given `O=C(c1ccccc1)c1c(C(F)(F)F)[n+]([O-])c2cc(F)c(F)cc2[n+]1[O-]` , state the outcome it received in this test.
Yes

State the result this test recorded for `CCCCCCCCCCCCCCCCCCCCCCC(=O)N[C@H]1CCc2cc(OC)c(OC)c(OC)c2-c2ccc(SC)c(=O)cc21` .
No

Called result for `NC(=O)N/N=C(\Cc1nc2ccc(C(=O)c3ccccc3)cc2nc1O)C(=O)Nc1ccc(Br)cc1`
No

Each compound tested received a call. Report the one for CC(=O)OCC1OC(N=[N+]=[N-])C(OC(C)=O)C(OC(C)=O)C1OC1OC(COC(C)=O)C(OC(C)=O)C(OC(C)=O)C1OC(C)=O (stereo not drawn) .
No

For this compound, state the assay outcome: `O=C(c1ccncc1)n1nc(-c2ccccc2)c(/N=N/c2ccc([N+](=O)[O-])cc2)c1-c1ccccc1`
No

----------
- System: ACHN
- Assay method text: NCI tumour cell line growth inhibition, 48 h
The source made the active and inactive calls. Cut-off read from the data, not from the text of the source: active = GI50 up to about 1.1 µM and inactive = higher.
Reported metric: GI50

Worked examples, 5 compounds total:
Compound: O=C(N/C(=C\c1c(O)ccc2ccccc12)c1nc2ccccc2[nH]1)c1ccccc1
Result: > 100 µM (inactive)
//
Compound: COc1nc2nccnc2c(=O)n1C
Result: > 10 µM (inactive)
//
Compound: CC1C2CC(C/C2=N/O)C1(C)C (stereo unspecified)
Result: > 100 µM (inactive)
//
Compound: CN1CCCNCCN(CCc2ccccn2)CCCN(C)CC1
Result: > 100 µM (inactive)
//
Compound: CCCCCCCCOP(=O)(O)OP(=O)(O)OCC1OC(n2ccc(N)nc2=O)C(O)C1O (stereo unspecified)
Result: > 100 µM (inactive)

Can you look up the measured GI50 of CCOC(=O)c1c(-c2ccc(OC)c(O)c2)c(C#N)c(=S)n(C2OC(CO)C(O)C(O)C2O)c1-c1ccccc1 (stereo unspecified) for me?
> 100 µM (inactive)

Data request, read-out GI50, for `CCCOC(=O)CNC(=O)OC(C)(C)C`
> 100 µM (inactive)

I would be grateful if you could share the reported GI50 for CC(=O)OCC1OC(N=[N+]=[N-])C(OC(C)=O)C(OC(C)=O)C1OC1OC(COC(C)=O)C(OC(C)=O)C(OC(C)=O)C1OC(C)=O (stereo unspecified) .
> 100 µM (inactive)

Quick one: GI50 of `CC1(C)Cc2cc(C(=O)O)c3c(c2C1=O)COCC3` ?
> 100 µM (inactive)

State the recorded GI50 for this entry: `C(=NCCN1CCOCC1)=NC1CCCCC1`
> 100 µM (inactive)
